target: T1, human GPC3 (human, UniProt P51654 25-563); experiment: SPR
T1 construct: range 25-563; soluble analyte; also called soluble human GPC3; glypican 3
T1 sequence (P51654 25-563 limits assumed): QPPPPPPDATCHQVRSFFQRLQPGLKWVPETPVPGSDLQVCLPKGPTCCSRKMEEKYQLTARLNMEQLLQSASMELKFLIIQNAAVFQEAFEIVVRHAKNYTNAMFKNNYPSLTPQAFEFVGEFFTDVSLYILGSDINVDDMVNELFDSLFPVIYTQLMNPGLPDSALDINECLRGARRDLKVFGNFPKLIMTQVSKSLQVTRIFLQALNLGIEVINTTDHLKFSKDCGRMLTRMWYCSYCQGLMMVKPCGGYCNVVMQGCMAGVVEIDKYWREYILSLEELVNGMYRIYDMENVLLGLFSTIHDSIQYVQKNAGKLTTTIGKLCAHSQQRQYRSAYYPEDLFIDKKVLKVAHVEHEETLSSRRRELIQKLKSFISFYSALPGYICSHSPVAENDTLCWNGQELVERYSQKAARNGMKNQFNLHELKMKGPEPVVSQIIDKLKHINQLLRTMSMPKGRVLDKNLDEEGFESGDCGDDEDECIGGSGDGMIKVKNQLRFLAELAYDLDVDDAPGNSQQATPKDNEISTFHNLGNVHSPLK
endpoint: pKd
Scale: pKd equals -log10([C]), with [C] in mol/L.

Worked cases, answers included:
GCH094-G1dh/none-Hi-Kn010G3/L0000-k0 (antibody, V domains shown, one-arm) VH: QVQLVQSGAEVKKPGASVTVSCKASGYTFTDYEMHWVRQAPGEGLEWMGAIDGETPDTAYSEKFKGRVTLTADKSTSTAYMELSSLTSEDTAVYYCTRFYSYTYWGQGTLVTVSS VL: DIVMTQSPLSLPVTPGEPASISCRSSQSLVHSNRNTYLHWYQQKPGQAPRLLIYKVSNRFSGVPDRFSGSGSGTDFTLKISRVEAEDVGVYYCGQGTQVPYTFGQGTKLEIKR; 8.23
H0610-G1dh/none-Hi-Kn010G3/TR01L003-k0 (antibody, V domains shown, one-arm) VH: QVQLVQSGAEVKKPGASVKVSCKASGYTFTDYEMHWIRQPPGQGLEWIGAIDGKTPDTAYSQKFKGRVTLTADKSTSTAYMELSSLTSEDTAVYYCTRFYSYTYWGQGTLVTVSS VL: DIVMTQSPLSLPVTPGEPASISCRSSQSLVHSNRNTYLHWYQQKPGQAPRLLIYKVSNRFSGVPDRFSGSGSGTDFTLKISRVEAEDVGVYYCGQGTQVPYTFGQGTKVEIE; 8.29

*Q* GET /values?readout=pKd&item= H0610-G1dh/none-Hi-Kn010G3/L0200-k0 (antibody, V domains shown, one-arm) VH: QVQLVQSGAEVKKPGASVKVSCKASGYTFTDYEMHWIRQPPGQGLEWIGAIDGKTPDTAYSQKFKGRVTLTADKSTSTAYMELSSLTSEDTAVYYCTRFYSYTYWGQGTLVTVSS VL: DIVMTQSPLSLPVTPGEPASISCRPSQSPVHSNRNTYLHWYQQKPGQAPRLLIYKVSNRFSGVPDRFSGSGSGTDFTLKISRVEAEDVGVYYCGQGTQVPYTFGQGTKLEIK
*A* 8.98
